test: Oral bioavailability in rat; format: ADME, organism-based; settings: in vivo
Record form. Attribute: bioavailability. Fill in for each entry.

molecule	bioavailability
N[C@@H](CC(=O)N1CCn2nc(C(F)(F)F)nc2C1)Cc1cc(F)c(F)cc1F	100%
N[C@@H](CC(=O)N1CCn2nc(C(F)(F)F)nc2C1Cn1cccn1)Cc1cc(F)c(F)cc1F (stereo partly drawn)	62%

Give one value of bioavailability per listed molecule.
1. N[C@@H](CC(=O)N1CCn2nc(C(F)(F)F)nc2C1Cn1ccnc1)Cc1cc(F)c(F)cc1F (stereo partly drawn)
2. N[C@@H](CC(=O)N1CCn2nc(C(F)(F)F)nc2[C@H]1Cc1ccc(F)cc1)Cc1cc(F)c(F)cc1F
3. C[C@@H]1c2nc(C(F)(F)F)nn2CCN1C(=O)C[C@H](N)Cc1cc(F)c(F)cc1F
4. N[C@@H](CC(=O)N1CCn2nc(C(F)(F)F)nc2C1Cn1cncn1)Cc1cc(F)c(F)cc1F (stereo partly drawn)

result:
["7.1%", "32%", "74%", "13%"]

###

test: Plasma clearance in dog; type: ADME, organism-based, Canis lupus familiaris
experimental_readout: clearance (mL/min/kg)
One number for each entry, in mL/min/kg.

molecule	experimental_readout	reported_measurement
N[C@@H](CC(=O)N1CCn2c(nnc2C(F)(F)F)C1)Cc1cc(F)c(F)cc1F [SITAGLIPTIN]	clearance	6

We now examine a further molecule.
query: Record request: clearance value, item C[C@@H]1c2nc(C(F)(F)F)nn2CCN1C(=O)C[C@H](N)Cc1cc(F)c(F)cc1F
result: 1

###

assay: Oral bioavailability in dog; assay type: ADME, organism-based, Canis lupus familiaris; details: in vivo
experimental_readout: bioavailability (%)
Numbers only, in %.

molecular_string	display_unit	bioavailability
C[C@@H]1c2nc(C(F)(F)F)nn2CCN1C(=O)C[C@H](N)Cc1cc(F)c(F)cc1F	%	67

We now examine a further molecule.
query: Record request: bioavailability value, item N[C@@H](CC(=O)N1CCn2c(nnc2C(F)(F)F)C1)Cc1cc(F)c(F)cc1F
result: 100

###

Record form. Attribute: IC50. Fill in for each entry.
target: Dipeptidyl peptidase 8 (Homo sapiens, UniProt Q6V1X1)
Sequence (Q6V1X1 whole entry): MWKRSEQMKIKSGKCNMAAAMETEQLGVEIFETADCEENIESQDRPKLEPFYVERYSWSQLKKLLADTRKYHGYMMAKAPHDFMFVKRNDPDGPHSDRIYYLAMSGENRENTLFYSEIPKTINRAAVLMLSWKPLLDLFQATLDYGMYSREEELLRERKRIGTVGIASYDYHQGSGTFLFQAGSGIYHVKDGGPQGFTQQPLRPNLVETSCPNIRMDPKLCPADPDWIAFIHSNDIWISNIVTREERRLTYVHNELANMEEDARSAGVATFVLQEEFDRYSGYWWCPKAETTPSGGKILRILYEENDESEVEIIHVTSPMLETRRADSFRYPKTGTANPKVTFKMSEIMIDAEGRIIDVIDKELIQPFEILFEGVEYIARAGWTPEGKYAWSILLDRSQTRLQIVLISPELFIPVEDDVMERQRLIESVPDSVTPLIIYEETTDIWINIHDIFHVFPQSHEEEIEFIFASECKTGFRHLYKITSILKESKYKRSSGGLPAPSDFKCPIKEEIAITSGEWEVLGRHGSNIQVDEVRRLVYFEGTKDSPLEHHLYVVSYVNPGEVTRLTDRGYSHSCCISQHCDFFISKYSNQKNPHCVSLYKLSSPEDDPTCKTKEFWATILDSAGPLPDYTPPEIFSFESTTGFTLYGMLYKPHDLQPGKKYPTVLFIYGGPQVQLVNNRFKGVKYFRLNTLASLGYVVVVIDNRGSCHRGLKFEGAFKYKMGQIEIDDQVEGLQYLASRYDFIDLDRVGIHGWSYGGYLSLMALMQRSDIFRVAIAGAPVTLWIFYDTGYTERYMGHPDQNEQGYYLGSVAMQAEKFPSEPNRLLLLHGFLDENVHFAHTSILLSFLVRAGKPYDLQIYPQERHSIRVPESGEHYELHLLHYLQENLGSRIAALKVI

compound	reported_measurement
N[C@@H](CC(=O)N1CCn2nc(C(F)(F)F)nc2C1Cn1cncn1)Cc1cc(F)c(F)cc1F (some centres not stated)	> 100 µM

query: Record request: IC50 value, item N[C@@H](CC(=O)N1CCn2nc(C(F)(F)F)nc2C1Cn1cccn1)Cc1cc(F)c(F)cc1F (some centres not stated)
result: > 100 µM

###

// Dipeptidyl peptidase 4 (Homo sapiens) pIC50 records
Answers are plain numbers, as −log10 of the molar value.

compound	pIC50
N[C@@H](CC(=O)N1CCn2nc(C(F)(F)F)nc2[C@@H]1C(F)C1CC1)Cc1cc(F)c(F)cc1F (stereo in doubt; 34c)	7.74

We now examine a further compound.
query: Record request: pIC50 value, item N[C@@H](CC(=O)N1CCn2nc(C(F)(F)F)nc2C1Cn1cncn1)Cc1cc(F)c(F)cc1F (some centres not stated)
result: 8.30

###

Record form. Attribute: half-life. Fill in for each entry.
test: Half life in dog; assay type: ADME, organism-based, Canis lupus familiaris; conditions: in vivo
Numbers only, in h.

molecule	experimental_readout	reported_measurement
N[C@@H](CC(=O)N1CCn2c(nnc2C(F)(F)F)C1)Cc1cc(F)c(F)cc1F [SITAGLIPTIN]	half-life	4.9

We now examine a further molecule.
query: Record request: half-life value, item C[C@@H]1c2nc(C(F)(F)F)nn2CCN1C(=O)C[C@H](N)Cc1cc(F)c(F)cc1F
result: 26

Sourced from ChEMBL document CHEMBL1140460
